Biological target: P300 (Homo sapiens, UniProt Q09472)
Sequence (Q09472 whole entry): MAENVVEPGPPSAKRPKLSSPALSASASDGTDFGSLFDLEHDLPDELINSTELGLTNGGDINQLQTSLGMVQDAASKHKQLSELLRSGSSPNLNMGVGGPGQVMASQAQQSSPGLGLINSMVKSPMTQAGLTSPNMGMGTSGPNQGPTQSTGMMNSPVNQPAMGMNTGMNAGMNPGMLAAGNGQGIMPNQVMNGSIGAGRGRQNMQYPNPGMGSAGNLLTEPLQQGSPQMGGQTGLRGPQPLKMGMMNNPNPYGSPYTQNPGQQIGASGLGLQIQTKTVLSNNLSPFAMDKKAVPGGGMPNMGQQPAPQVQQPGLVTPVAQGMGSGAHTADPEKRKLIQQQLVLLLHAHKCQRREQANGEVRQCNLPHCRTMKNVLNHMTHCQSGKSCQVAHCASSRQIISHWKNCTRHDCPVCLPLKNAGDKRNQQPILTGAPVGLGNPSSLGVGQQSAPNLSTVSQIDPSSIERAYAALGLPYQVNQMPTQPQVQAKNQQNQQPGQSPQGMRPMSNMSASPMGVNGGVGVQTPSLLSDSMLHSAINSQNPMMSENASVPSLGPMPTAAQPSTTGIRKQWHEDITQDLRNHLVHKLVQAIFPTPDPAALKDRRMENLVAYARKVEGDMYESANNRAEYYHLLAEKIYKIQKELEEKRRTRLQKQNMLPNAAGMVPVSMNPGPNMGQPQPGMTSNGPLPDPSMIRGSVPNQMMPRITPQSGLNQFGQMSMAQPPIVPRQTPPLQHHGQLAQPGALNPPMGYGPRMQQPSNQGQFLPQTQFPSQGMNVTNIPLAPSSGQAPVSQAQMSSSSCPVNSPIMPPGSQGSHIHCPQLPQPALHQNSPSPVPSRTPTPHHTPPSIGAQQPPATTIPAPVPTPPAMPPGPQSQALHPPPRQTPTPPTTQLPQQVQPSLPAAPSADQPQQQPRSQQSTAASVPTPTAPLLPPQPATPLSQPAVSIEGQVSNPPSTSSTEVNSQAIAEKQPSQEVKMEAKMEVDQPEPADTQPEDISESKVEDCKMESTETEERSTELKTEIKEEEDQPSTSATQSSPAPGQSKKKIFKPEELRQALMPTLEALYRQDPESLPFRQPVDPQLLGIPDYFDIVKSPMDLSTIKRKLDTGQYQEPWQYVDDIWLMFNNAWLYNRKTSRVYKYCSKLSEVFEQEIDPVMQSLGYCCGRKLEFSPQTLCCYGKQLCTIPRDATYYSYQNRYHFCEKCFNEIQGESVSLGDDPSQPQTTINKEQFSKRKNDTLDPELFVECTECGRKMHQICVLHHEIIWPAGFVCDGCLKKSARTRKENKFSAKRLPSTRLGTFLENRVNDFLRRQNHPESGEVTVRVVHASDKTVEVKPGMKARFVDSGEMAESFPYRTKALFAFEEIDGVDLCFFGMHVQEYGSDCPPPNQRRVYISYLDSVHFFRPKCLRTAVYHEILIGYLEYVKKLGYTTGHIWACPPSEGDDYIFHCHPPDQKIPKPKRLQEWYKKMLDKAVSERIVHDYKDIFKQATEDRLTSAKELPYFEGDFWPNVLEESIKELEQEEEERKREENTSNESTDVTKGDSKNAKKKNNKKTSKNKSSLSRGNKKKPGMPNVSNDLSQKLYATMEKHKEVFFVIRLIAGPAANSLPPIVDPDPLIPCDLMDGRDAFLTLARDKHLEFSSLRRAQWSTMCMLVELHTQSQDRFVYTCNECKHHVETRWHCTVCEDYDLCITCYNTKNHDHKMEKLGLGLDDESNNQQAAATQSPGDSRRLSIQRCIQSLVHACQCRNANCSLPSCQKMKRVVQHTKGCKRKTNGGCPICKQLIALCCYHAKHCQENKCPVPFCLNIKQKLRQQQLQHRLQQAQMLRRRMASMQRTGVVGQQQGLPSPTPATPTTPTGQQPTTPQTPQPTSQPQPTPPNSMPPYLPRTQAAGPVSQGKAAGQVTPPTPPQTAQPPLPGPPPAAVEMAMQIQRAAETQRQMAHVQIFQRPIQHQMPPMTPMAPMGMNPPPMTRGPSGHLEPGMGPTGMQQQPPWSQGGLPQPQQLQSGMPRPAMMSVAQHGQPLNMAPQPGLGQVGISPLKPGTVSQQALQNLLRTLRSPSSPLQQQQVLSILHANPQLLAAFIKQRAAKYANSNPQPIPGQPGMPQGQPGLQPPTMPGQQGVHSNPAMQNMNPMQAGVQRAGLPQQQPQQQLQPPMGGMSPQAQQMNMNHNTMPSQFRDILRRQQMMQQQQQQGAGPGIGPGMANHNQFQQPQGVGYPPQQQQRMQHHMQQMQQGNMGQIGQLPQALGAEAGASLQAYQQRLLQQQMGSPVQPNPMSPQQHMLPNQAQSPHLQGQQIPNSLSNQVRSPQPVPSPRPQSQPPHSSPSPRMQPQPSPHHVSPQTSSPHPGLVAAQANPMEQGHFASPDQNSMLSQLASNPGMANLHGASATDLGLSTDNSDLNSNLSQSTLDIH
Assay: Immunoblotting of P300 protein levels in LNCaP or 22RV1 cells
Format: cell-based
Parameters: LNCaP or 22RV1 cells that express CBP/P300 proteins were treated with GNE-781 or the bivalent compounds; endogenous in cells; host or cells: LNCaP (clone FGC) or 22RV1 cells
Conditions: percentage of inhibition of p300 at 10 nM (Table 3); read-out: Degradation (10 nM)
parameter_measured: inhibition at 0.01 µM

# example entries with known answers
[
  {
    "compound": "CNC(=O)N1CCc2c(c(N3CCCc4cc(-c5cnn(C)c5)c(C(F)F)cc43)nn2C2CCN(C(=O)CCOCCOCCOCCNc3cccc4c3C(=O)N(C3CCC(=O)NC3=O)C4=O)CC2)C1 (centres unmarked)",
    "inhibition at 0.01 µM": "20 to 50%"
  },
  {
    "compound": "CC(=O)N1CCc2c(c(N3CCCc4cc(-c5cnn(C)c5)c(C(F)F)cc43)nn2C2CCN(C(=O)CCCCCNc3ccc4c(c3)C(=O)N(C3CCC(=O)NC3=O)C4=O)CC2)C1 (centres unmarked)",
    "inhibition at 0.01 µM": "> 80%"
  },
  {
    "compound": "CNC(=O)N1CCc2c(c(N3CCCc4cc(-c5cnn(C)c5)c(C(F)F)cc43)nn2C2CCN(C(=O)CCOCCNc3cccc4c3C(=O)N(C3CCC(=O)NC3=O)C4=O)CC2)C1 (centres unmarked)",
    "inhibition at 0.01 µM": "< 20%"
  },
  {
    "compound": "CNC(=O)N1CCc2c(c(N3CCCc4cc(-c5cnn(C)c5)c(C(F)F)cc43)nn2C2CCN(C(=O)CCCCCCc3cccc4c3C(=O)N(C3CCC(=O)NC3=O)C4)CC2)C1 (centres unmarked)",
    "inhibition at 0.01 µM": "20 to 50%"
  },
  {
    "compound": "CC(=O)N1CCc2c(c(N3CCCc4cc(-c5cnn(C)c5)c(C(F)F)cc43)nn2C2CCN(CCCCCCCc3cccc4c3C(=O)N(C3CCC(=O)NC3=O)C4=O)CC2)C1 (centres unmarked)",
    "inhibition at 0.01 µM": "20 to 50%"
  }
]

Lab note: next compound to report on.
Summary for this compound, CNC(=O)N1CCc2c(c(N3CCCc4cc(-c5cnn(C)c5)c(C(F)F)cc43)nn2C2CCN(CCCCCCNc3cccc4c3C(=O)N(C3CCC(=O)NC3=O)C4=O)CC2)C1 (centres unmarked) : inhibition at 0.01 µM is > 80%

----------
# maps each entry to its inhibition at 0.01 µM
Target: P300 (Homo sapiens, UniProt Q09472)
Test: Immunoblotting of P300 protein levels in LNCaP or 22RV1 cells
Type: cell-based
Design: LNCaP or 22RV1 cells that express CBP/P300 proteins were treated with GNE-781 or the bivalent compounds; endogenous in cells; host or cells: LNCaP (clone FGC) or 22RV1 cells
Conditions: percentage of inhibition of p300 at 10 nM (Table 2); read-out: Degradation (10 nM)

# example entries with known answers
[
  {
    "molecule": "CNC(=O)N1CCc2c(c(N3CCCc4cc(-c5cnn(C)c5)c(C(F)F)cc43)nn2C2CCN(C(=O)CCCNc3ccc4c(c3)C(=O)N(C3CCC(=O)NC3=O)C4=O)CC2)C1 (stereo not drawn)",
    "inhibition at 0.01 µM": "50 to 80%"
  },
  {
    "molecule": "CNC(=O)N1CCc2c(c(N3CCCc4cc(-c5cnn(C)c5)c(C(F)F)cc43)nn2C2CCN(C(=O)CCCCCCNc3cccc4c3C(=O)N(C3CCC(=O)NC3=O)C4=O)CC2)C1 (stereo not drawn)",
    "inhibition at 0.01 µM": "> 80%"
  }
]

Lab note: next molecule to report on.
Summary for this molecule, CNC(=O)N1CCc2c(c(N3CCCc4cc(-c5cnn(CC(=O)NCCOCCOCCOCCOCCOCCNc6cccc7c6C(=O)N(C6CCC(=O)NC6=O)C7=O)c5)c(C(F)F)cc43)nn2C2CCOCC2)C1 (stereo not drawn) : inhibition at 0.01 µM is < 20%

----------
Molecular target: P300 (Homo sapiens)
Assay: Immunoblotting of P300 protein levels in LNCaP or 22RV1 cells
Assay type: cell-based
Set-up: LNCaP or 22RV1 cells that express CBP/P300 proteins were treated with GNE-781 or the bivalent compounds; endogenous in cells; host or cells: LNCaP (clone FGC) or 22RV1 cells
Conditions: percentage of inhibition of p300 at 10 nM (Table 3); read-out: Degradation (10 nM)
parameter_measured: inhibition at 0.01 µM

# example entries with known answers
[
  {
    "molecule": "CC(=O)N1CCc2c(c(N3CCCc4cc(-c5cnn(C)c5)c(C(F)F)cc43)nn2C2CCN(C(=O)CCCCCNc3cccc4c3n(C)c(=O)n4C3CCC(=O)NC3=O)CC2)C1 (centres unmarked)",
    "reported_result": "> 80%"
  },
  {
    "molecule": "CNC(=O)N1CCc2c(c(N3CCCc4cc(-c5cnn(C)c5)c(C(F)F)cc43)nn2C2CCN(C(=O)CCCCCNc3cccc4c3C(=O)N(C3CCC(=O)NC3=O)C4)CC2)C1 (centres unmarked)",
    "reported_result": "> 80%"
  },
  {
    "molecule": "CNC(=O)N1CCc2c(c(N3CCCc4cc(-c5cnn(CC(=O)NCCCCCCCCC(=O)N[C@H](C(=O)N6C[C@H](O)C[C@H]6C(=O)NCc6ccc(-c7scnc7C)cc6)C(C)(C)C)c5)c(C(F)F)cc43)nn2C2CCOCC2)C1",
    "reported_result": "< 20%"
  }
]

The value of inhibition at 0.01 µM recorded for CC(=O)N1CCc2c(c(N3CCCc4cc(-c5cnn(C)c5)c(C(F)F)cc43)nn2C2CCN(Cc3ccc(CCOc4cccc5c4CN(C4CCC(=O)NC4=O)C5=O)cc3)CC2)C1 (centres unmarked) when tested on P300 (Homo sapiens) reads > 80%

The value of inhibition at 0.01 µM recorded for CC(=O)N1CCc2c(c(N3CCCc4cc(-c5cnn(C)c5)c(C(F)F)cc43)nn2C2CCN(C(=O)CC#CCCNc3cccc4c3C(=O)N(C3CCC(=O)NC3=O)C4=O)CC2)C1 (centres unmarked) when tested on P300 (Homo sapiens) reads 20 to 50%

----------
Target: P300 (Homo sapiens)
Test: Immunoblotting of P300 protein levels in LNCaP or 22RV1 cells
Assay type: cell-based
Parameters: LNCaP or 22RV1 cells that express CBP/P300 proteins were treated with GNE-781 or the bivalent compounds; endogenous in cells; host or cells: LNCaP (clone FGC) or 22RV1 cells
Details: percentage of inhibition of p300 at 10 nM (Table 3); read-out: Degradation (10 nM)
parameter_measured: inhibition at 0.01 µM

# example entries with known answers
[
  {
    "molecule": "CC(=O)N1CCc2c(c(N3CCCc4cc(-c5cnn(C)c5)c(C(F)F)cc43)nn2C2CCN(CCCCCCNc3cccc4c3C(=O)N(C3CCC(=O)NC3=O)C4=O)CC2)C1 (stereo not shown)",
    "parameter_measured": "inhibition at 0.01 µM",
    "reported_result": "> 80%"
  },
  {
    "molecule": "CC(=O)N1CCc2c(c(N3CCCc4cc(-c5cnn(C)c5)c(C(F)F)cc43)nn2C2CCN(C(=O)CN3CCC(CCCc4cccc5c4C(=O)N(C4CCC(=O)NC4=O)C5=O)CC3)CC2)C1 (stereo not shown)",
    "parameter_measured": "inhibition at 0.01 µM",
    "reported_result": "> 80%"
  },
  {
    "molecule": "CNC(=O)N1CCc2c(c(N3CCCc4cc(-c5cnn(C)c5)c(C(F)F)cc43)nn2C2CCN(C(=O)CCCCC(=O)N[C@H](C(=O)N3C[C@H](O)C[C@H]3C(=O)NCc3ccc(-c4scnc4C)cc3)C(C)(C)C)CC2)C1",
    "parameter_measured": "inhibition at 0.01 µM",
    "reported_result": "< 20%"
  },
  {
    "molecule": "CC(=O)N1CCc2c(c(N3CCCc4cc(-c5cnn(C)c5)c(C(F)F)cc43)nn2C2CCN(C(=O)CCCCCCNc3cccc4c3n(C)c(=O)n4C3CCC(=O)NC3=O)CC2)C1 (stereo not shown)",
    "parameter_measured": "inhibition at 0.01 µM",
    "reported_result": "> 80%"
  },
  {
    "molecule": "CNC(=O)N1CCc2c(c(N3CCCc4cc(-c5cnn(C)c5)c(C(F)F)cc43)nn2C2CCN(C(=O)CCOCCOCCOCCOCCOCCC(=O)N[C@H](C(=O)N3C[C@H](O)C[C@H]3C(=O)NCc3ccc(-c4scnc4C)cc3)C(C)(C)C)CC2)C1",
    "parameter_measured": "inhibition at 0.01 µM",
    "reported_result": "< 20%"
  },
  {
    "molecule": "CNC(=O)N1CCc2c(c(N3CCCc4cc(-c5cnn(CC(=O)NCCOCCOCCC(=O)N[C@H](C(=O)N6C[C@H](O)C[C@H]6C(=O)NCc6ccc(-c7scnc7C)cc6)C(C)(C)C)c5)c(C(F)F)cc43)nn2C2CCOCC2)C1",
    "parameter_measured": "inhibition at 0.01 µM",
    "reported_result": "< 20%"
  },
  {
    "molecule": "CNC(=O)N1CCc2c(c(N3CCCc4cc(-c5cnn(CC(=O)NCCCC(=O)N[C@H](C(=O)N6C[C@H](O)C[C@H]6C(=O)NCc6ccc(-c7scnc7C)cc6)C(C)(C)C)c5)c(C(F)F)cc43)nn2C2CCOCC2)C1",
    "parameter_measured": "inhibition at 0.01 µM",
    "reported_result": "< 20%"
  },
  {
    "molecule": "CNC(=O)N1CCc2c(c(N3CCCc4cc(-c5cnn(C)c5)c(C(F)F)cc43)nn2C2CCN(C(=O)CCCCCCc3cccc4c3CN(C3CCC(=O)NC3=O)C4=O)CC2)C1 (stereo not shown)",
    "parameter_measured": "inhibition at 0.01 µM",
    "reported_result": "50 to 80%"
  },
  {
    "molecule": "CC(=O)N1CCc2c(c(N3CCCc4cc(-c5cnn(C)c5)c(C(F)F)cc43)nn2C2CCN(C(=O)CCN3CCC(CCc4cccc5c4C(=O)N(C4CCC(=O)NC4=O)C5=O)CC3)CC2)C1 (stereo not shown)",
    "parameter_measured": "inhibition at 0.01 µM",
    "reported_result": "> 80%"
  },
  {
    "molecule": "CC(=O)N1CCc2c(c(N3CCCc4cc(-c5cnn(C)c5)c(C(F)F)cc43)nn2C2CCN(C(=O)CCCCCCCCNc3cccc4c3n(C)c(=O)n4C3CCC(=O)NC3=O)CC2)C1 (stereo not shown)",
    "parameter_measured": "inhibition at 0.01 µM",
    "reported_result": "> 80%"
  }
]

Summary for this molecule, CC(=O)N1CCc2c(c(N3CCCc4cc(-c5cnn(C)c5)c(C(F)F)cc43)nn2C2CCN(C(=O)CCCCNc3cccc4c3n(C)c(=O)n4C3CCC(=O)NC3=O)CC2)C1 (stereo not shown) : inhibition at 0.01 µM is 20 to 50%

Summary for this molecule, CC(=O)N1CCc2c(c(N3CCCc4cc(-c5cnn(C)c5)c(C(F)F)cc43)nn2C2CCN(C(=O)CCCCCCNc3cccc4nnn(C5CCC(=O)NC5=O)c(=O)c34)CC2)C1 (stereo not shown) : inhibition at 0.01 µM is > 80%
